system: NCI-H1876 complex spheroid growth, % test/control; assay: Anticancer human tumor NCI-H1876 cell line growth inhibition [Asc]; details: curve of first compound; second compound 0.1 µM;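 note: compound exposure lasted 7 days starting three days after seeding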
pIC50: −log10 of the molar value.
Exercise: state measured pIC50 for each of the compounds provided.

compound="Cn1ncnc1[C@H]1c2n[nH]c(=O)c3cc(F)cc(c23)N[C@@H]1c1ccc(F)cc1 + Cc1c(S(C)(=O)=O)c(-c2cc(F)cc(N3CCN(c4ccc(NS(=O)(=O)c5ccc(NC(CCN6CCC(C(=O)OCCCP(=O)(O)O)CC6)CSc6ccccc6)c(S(=O)(=O)C(F)(F)F)c5)cc4)CC3)c2)c(-c2ccc(Cl)cc2)n1C(C)C" result="< 7.00"
compound="CCN1CCN(Cc2ccc(Nc3ncc(F)c(-c4cc(F)c5nc(C)n(C(C)C)c5c4)n3)nc2)CC1 + CNC(C)C(=O)NC1CN(S(=O)(=O)c2cccc(S(=O)(=O)N3CCC4CCC(C(=O)NC(c5ccccc5)c5ccccc5)N4C(=O)C(NC(=O)C(C)NC)C3)c2)CCC2CCC(C(=O)NC(c3ccccc3)c3ccccc3)N2C1=O" result="< 6.00"

q: Recorded pIC50 for CCN1C(C(=O)NC23CCC(C(=O)O)(CC2)CC3)C(c2cccc(Cl)c2F)C2(C(=O)Nc3cc(Cl)ccc32)C12CCCCC2 (stereo not drawn) + Cc1c(S(C)(=O)=O)c(-c2cc(F)cc(N3CCN(c4ccc(NS(=O)(=O)c5ccc(NC(CCN6CCC(C(=O)OCCCP(=O)(O)O)CC6)CSc6ccccc6)c(S(=O)(=O)C(F)(F)F)c5)cc4)CC3)c2)c(-c2ccc(Cl)cc2)n1C(C)C with NCI-H1876 complex spheroid growth, % test/control, please?
a: < 5.52

From: PubChem BioAssay AID1963441
